Sourced from patent US11447466B2

Molecular target: human TLR9 (Homo sapiens)
Sequence (Q9NR96 26-1032): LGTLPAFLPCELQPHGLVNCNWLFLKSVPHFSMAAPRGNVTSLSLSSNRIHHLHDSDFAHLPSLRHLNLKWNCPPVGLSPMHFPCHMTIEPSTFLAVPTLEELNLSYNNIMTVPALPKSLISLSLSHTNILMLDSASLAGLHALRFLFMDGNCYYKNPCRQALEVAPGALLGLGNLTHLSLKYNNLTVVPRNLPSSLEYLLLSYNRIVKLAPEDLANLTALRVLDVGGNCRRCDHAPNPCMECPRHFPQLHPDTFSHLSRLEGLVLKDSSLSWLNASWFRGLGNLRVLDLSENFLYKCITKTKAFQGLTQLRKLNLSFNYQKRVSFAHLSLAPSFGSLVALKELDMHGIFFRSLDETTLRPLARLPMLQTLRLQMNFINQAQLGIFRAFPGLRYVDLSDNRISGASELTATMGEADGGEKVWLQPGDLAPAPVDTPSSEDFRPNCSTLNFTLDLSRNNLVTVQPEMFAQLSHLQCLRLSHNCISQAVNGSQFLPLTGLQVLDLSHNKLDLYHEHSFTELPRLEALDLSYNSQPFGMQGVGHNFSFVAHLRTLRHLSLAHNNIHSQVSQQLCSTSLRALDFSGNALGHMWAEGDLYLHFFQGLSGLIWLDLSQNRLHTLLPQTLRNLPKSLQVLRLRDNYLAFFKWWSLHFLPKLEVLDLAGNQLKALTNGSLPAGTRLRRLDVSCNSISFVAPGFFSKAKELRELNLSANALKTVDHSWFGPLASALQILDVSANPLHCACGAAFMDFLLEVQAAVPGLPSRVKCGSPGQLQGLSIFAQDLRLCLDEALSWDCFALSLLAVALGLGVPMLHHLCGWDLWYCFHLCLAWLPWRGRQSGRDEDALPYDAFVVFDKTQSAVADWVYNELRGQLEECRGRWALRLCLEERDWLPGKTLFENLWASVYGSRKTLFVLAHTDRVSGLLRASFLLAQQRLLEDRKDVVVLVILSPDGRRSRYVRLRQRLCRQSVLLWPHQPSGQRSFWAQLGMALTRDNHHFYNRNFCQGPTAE
Assay: TLR9 inhibition reporter assay (HEK-Blue SEAP reporter, ODN2006 stimulation)
Details: HEK-Blue cells overexpressing human TLR9, SEAP reporter, ODN2006 5 nM, 22 hour incubation
Each record is given 1 (yes) if its reported IC50 is strictly below 6 µM. Records at or above 6 µM are given 0 (no).

Record excerpt, results attached:
| molecule | assigned label |
| --- | --- |
| Cc1cc(-c2[nH]c3ccc(C4CCN(C(=O)C[C@H](C)O)CC4)cc3c2C(C)C)cn(C)c1=O | 0 (no) |
| Cc1c(-c2[nH]c3ccc(C4CCN(C(=O)C(F)(F)F)CC4)cc3c2C(C)C)cn(C)c(=O)c1Cl | 0 (no) |
| Cc1c(-c2[nH]c3ccc(C4CCN(C5CCCC5)CC4)cc3c2C(C)C)cn(C)c(=O)c1Cl | 1 (yes) |
| Cc1c(-c2[nH]c3ccc(C4CCN(CCCC(F)(F)F)CC4)cc3c2C(C)C)cn(C)c(=O)c1Cl | 1 (yes) |
| Cc1cc(-c2[nH]c3ccc(C4CCN(CC(=O)N(C)C)CC4)cc3c2C(C)C)cn(Cc2ccccc2)c1=O | 1 (yes) |

Now turn to the next compound.
Prompt line: is_below(IC50, 6 µM) for Cc1cc(-c2[nH]c3ccc(C4CCN(Cc5cc(Cl)ccc5F)CC4)cc3c2C(C)C)cn(C)c1=O ?
Response line: 0 (no)
